Molecular target: recombinant human Meningioma Expressed Antigen 5 (MGEA5), also referred to as O-GlcNAcase (OGA) (Homo sapiens)
Construct: Full length OGA enzyme was purchased at OriGene (cat #TP322411); purchased OriGene TP322411
Sequence (O60502 whole entry): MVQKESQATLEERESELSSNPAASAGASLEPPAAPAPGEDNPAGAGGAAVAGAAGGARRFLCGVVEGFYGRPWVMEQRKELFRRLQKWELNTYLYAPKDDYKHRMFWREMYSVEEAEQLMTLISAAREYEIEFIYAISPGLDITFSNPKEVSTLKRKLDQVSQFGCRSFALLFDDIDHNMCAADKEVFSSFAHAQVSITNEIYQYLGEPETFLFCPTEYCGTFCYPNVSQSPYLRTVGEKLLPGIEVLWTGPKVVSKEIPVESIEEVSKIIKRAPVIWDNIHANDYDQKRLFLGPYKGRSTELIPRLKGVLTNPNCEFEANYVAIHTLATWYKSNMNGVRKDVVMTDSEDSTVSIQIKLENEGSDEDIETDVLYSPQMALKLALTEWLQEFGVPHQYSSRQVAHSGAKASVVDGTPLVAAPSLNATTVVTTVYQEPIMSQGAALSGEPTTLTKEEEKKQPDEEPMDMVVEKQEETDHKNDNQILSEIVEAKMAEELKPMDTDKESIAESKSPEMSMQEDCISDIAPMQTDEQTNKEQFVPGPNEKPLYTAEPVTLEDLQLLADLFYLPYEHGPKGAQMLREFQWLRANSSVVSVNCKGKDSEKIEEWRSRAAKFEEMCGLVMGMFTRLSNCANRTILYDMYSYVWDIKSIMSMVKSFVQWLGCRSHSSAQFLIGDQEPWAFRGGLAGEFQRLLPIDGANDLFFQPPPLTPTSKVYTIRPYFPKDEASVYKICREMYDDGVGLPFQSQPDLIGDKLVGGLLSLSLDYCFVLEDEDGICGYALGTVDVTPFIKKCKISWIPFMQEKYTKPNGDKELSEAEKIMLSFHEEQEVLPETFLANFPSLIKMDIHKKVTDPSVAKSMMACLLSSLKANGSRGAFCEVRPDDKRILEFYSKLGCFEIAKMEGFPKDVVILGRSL
Assay: OGA biochemical assay (inhibition of FM-GlcNAc hydrolysis, fluorescence)
Conditions: FM-GlcNAc substrate, 6 h at room temperature, read-out: Enzymatic hOGA, pIC50 (converted)
ENDPOINT: IC50 (nM)

INSERT INTO measurements (molecule, endpoint, measured_result) VALUES
  ('COc1cc(C[C@H]2CCN(C(C)c3ccc4c(c3)OCC4)C2)cc(C)n1 (stereo partly shown)', 'IC50', 126),
  ('Cc1cc(C[C@H]2CCN([C@H](C)c3ccc4c(c3)OCC4)C2)cc(C)n1 (single isomer, unassigned)', 'IC50', 1000),
  ('CC(c1ccc2c(n1)OCCO2)N1CC[C@@H](Oc2ccc(C#N)nn2)C1 (single isomer, unassigned) [Product 55]', 'IC50', 200),
  ('Cc1cc(O[C@@H]2CCN(C(C)c3ccc4c(n3)OCCO4)C2)cc(C)n1 (single isomer, unassigned) [Product 74]', 'IC50', 7940);

(I) COc1cc(C[C@H]2CCN(C(C)c3nc4c(cc3F)CCO4)C2)cc(C)n1 (single isomer, unassigned) [Product 85]
(II) Cc1cc(OC[C@H]2CCN(C(C)c3nc4c(cc3F)OCCO4)C2)cc(C)n1 (mixture of isomers)
In: In terms of reported IC50, does I or II have the smaller number? Use the label to indicate which entry you chose.
Out: II
